Molecular target: T1, GST-hTEAD1(209-426) (human, UniProt P28347 209-426)
T1 construct: A 3C protease site stands between tags and protein; also called human TEAD1; source: E. coli BL21 DE3 RIL, purified (His Trap, SEC); not shown: GST, N-terminal, kept
T1 sequence (P28347 209-426): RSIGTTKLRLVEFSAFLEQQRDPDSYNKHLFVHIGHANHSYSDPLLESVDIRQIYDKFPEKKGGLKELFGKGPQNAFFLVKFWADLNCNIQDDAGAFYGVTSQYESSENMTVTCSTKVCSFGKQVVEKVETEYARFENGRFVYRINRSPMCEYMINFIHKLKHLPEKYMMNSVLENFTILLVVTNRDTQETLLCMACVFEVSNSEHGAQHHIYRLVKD
Test: SPR; GST-hTEAD1 or mTEAD4 amine-coupled to a CM5 chip (10 mM MES pH 6.4), peptides as analytes; 10 mM HEPES, 150 mM NaCl, 0.05% Tween-20, pH 7.4, 20 °C, 30 µL/min; steady-state fit, 1:1 model
Details: both partners purified
Ends that are not written are not given here.
Measured Property: pKd
# log scale: pKd equals minus log10 of the concentration in mol/L

// sample Ac-SVEDHFAKALGDTWLQIKAA (VGL4 two-helix motif with E at 235, not cyclised; numbers count on: mouse VGL4 as in PDB 4LN0; Synthesised on Rink amide resin: C-terminal amide surmised; also called linear version of 4E; source: synthetic peptide) [peptide 4E(open), acetylated] , its pKd was 5.51
